- study_target: T1, human TL1A extracellular domain with N-terminal HIS and FLAG tag (human, UniProt O95150 72-251)
- T1 construct: the whole entry is named; also called TNFSF15
- T1 sequence: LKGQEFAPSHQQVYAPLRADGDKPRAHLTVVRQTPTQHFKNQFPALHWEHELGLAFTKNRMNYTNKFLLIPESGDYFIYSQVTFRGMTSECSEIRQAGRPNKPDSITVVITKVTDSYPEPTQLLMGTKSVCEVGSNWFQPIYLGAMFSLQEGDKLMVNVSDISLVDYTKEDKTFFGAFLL
- assay_summary: SPR Run 7, antibody on Protein A, TL1A 5 ug/mL, timepoint 220
Please provide measured TL1A Binding Level (Late) for the entries that follow.
Numbers only, in RU.

Solved cases below.
binder	result_units	experimental_result
320-532 (antibody, human IgG1, name in Kabat numbering, V domains shown, full-length human IgG1, lambda) VH: QVQLVQSGAEVKKPGASVKVSCKASGYTFTSYDINWVRQAPGQGLEWMGWLNPNSSNTGYAQKFQGRVTMTADRSTSTAYMELSSLRSEDTAVYYCAREVPETAAFEYWGQGTLVTVSS VL: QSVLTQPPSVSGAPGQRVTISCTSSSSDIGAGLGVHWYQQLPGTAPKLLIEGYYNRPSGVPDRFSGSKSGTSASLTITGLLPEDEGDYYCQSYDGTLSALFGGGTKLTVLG	RU	7
320-533 (antibody, human IgG1, name in Kabat numbering, V domains shown, full-length human IgG1, lambda) VH: QVQLVQSGAEVKKPGASVKVSCKASGYTFTSYDINWVRQAPGQGLEWMGWLNPNSQNTGYAQKFQGRVTMTADRSTSTAYMELSSLRSEDTAVYYCAREVPETAAFEYWGQGTLVTVSS VL: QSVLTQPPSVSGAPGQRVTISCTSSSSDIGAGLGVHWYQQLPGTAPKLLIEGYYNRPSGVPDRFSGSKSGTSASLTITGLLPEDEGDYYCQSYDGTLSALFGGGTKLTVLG	RU	86
320-497 (antibody, human IgG1, name in Kabat numbering, V domains shown, full-length human IgG1, lambda) VH: QVQLVQSGAEVKKPGASVKVSCKASGYTFTSYDINWVRQAPGQGLEWMGWLAPNSGNTGYAQKFQGRVTMTADRSTSTAYMELSSLRSEDTAVYYCAREVPETAAFEYWGQGTLVTVSS VL: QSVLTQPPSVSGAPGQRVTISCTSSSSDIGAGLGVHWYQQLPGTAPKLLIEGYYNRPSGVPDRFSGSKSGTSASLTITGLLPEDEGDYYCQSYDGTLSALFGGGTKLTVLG	RU	125
320-582 (antibody, human IgG1, name in Kabat numbering, V domains shown, full-length human IgG1, lambda) VH: QVQLVQSGAEVKKPGASVKVSCKASGYTFTSYDINWVRQAPGQGLEWMGWLNPNSGNTGWAQKFQGRVTMTADRSTSTAYMELSSLRSEDTAVYYCAREVPETAAFEYWGQGTLVTVSS VL: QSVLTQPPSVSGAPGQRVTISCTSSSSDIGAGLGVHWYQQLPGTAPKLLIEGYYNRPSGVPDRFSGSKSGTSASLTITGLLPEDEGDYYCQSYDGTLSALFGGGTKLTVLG	RU	52

Kindly consider the entry below.
Task: So what does the record say about TL1A Binding Level (Late) for 320-559 (antibody, human IgG1, name in Kabat numbering, V domains shown, full-length human IgG1, lambda) VH: QVQLVQSGAEVKKPGASVKVSCKASGYTFTSYDINWVRQAPGQGLEWMGWLNPNSGNTQYAQKFQGRVTMTADRSTSTAYMELSSLRSEDTAVYYCAREVPETAAFEYWGQGTLVTVSS VL: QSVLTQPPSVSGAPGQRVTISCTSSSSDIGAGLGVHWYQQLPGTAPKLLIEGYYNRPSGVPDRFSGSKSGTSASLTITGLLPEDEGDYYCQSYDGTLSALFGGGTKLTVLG ?
Output: 5
